Parameter: MFI. Scope: all listed entries.
Molecular target: T1, human CD33, full length, on cells (human, UniProt P20138 18-364)
T1 construct: NIH-3T3 cells stably overexpressing full-length human CD33, or AML lines U937 and Set2 with endogenous CD33; the cell line is named under assay; also called 3T3-huCD33; 3T3-CD33
T1 sequence (P20138 18-364): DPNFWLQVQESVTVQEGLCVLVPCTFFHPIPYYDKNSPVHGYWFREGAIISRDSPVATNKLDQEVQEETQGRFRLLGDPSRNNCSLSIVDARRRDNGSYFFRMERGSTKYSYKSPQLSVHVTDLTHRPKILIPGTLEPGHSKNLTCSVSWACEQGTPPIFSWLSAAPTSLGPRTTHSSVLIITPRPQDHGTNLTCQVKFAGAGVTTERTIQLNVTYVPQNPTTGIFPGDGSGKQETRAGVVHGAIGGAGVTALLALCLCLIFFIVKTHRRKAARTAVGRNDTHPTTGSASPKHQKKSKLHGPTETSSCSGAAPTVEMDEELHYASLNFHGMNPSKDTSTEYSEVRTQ
Assay: flow cytometry, hybridoma supernatant, U937 cells
The reply should be a number in MFI, with the unit left off.

Per the record, 2-N3 (antibody, V domains shown, AlivaMab mouse hybridoma antibody; also called 2-N3-A) VH: EVQLVQSGADVKKPGESLKISCKGSGFSFTSHWIAWVRQMPGKGLEWMGIIYPGDSDTRYSPSLQGRVTISADKSISTAYLQWSSLKASDTAMYFCARHETGNGYSYGMDVWGQGTTVTVSS VL: DIVMTQSPLSLPVTPGEPASISCRSSQSLLHSNGYNYLDWYLQKPGQSPQLLFSLGSNRASGVPDRFSGSGSGTDFSLKISRVEAEDVGLYYCMQALQPPLTFGGGTKVEIK has MFI of 409000

Continuing:
// sample 4-P3 (antibody, V domains shown, AlivaMab mouse hybridoma antibody; also called 4-P3-A) VH: EVQLLESGGGLVQPGGSLRLSCAASGFTFSTYAMSWVRQAPGKGLEWVSAISGRGGSTYYTDSVKGRFTISRDNSKNTVSLQMNSLRAEDTAVYYCAGRGDYYYYYGMDVWGQGTTVTVSA VL: DIVMTQSPLSSPVTLGQPASISCRSSQSLVYSDGNTYLSWLQQRPGQPPRLLIYKISNRFSGVPDRFSGSGAGTDFTLKISRVEAEDVGVYYCMQSTQFPHTFGQGTKLEIK , its MFI was 188000
